Biological target: Adrenergic β2 (H292 cells) (Homo sapiens, UniProt P07550)
Construct: endogenous in cells; host or cells: H292 cells
Sequence (P07550 whole entry): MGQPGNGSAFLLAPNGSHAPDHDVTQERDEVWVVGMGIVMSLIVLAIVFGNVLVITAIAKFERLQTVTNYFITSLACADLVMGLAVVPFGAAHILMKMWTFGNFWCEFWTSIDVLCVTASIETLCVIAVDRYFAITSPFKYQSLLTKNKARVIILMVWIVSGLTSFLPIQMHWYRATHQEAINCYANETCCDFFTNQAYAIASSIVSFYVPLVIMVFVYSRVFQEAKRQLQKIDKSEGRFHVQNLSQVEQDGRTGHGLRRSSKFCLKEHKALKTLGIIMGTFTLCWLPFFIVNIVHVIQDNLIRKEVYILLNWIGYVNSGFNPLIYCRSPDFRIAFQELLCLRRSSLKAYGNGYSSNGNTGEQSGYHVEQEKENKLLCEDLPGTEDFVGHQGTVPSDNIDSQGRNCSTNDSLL
Assay: Adrenergic β2 Mediated cAMP Production, single concentration 1 μM
Assay type: cell-based
Details: NCI-H292, 1 μM compound, percentage of the maximum response generated by 1E-07M formoterol, read-out: β2 (% effect at 1 μM)
activation at 1 µM below 90% gives Not fulfilled; activation at 1 µM at or above it gives Fulfilled.

Check out these entries, answers already filled in.
- O=C(Cn1ccc2cccc(Cl)c21)N1CCOC2(CCN(Cc3cc(F)cc(CCNC[C@H](O)c4ccc(O)c5[nH]c(=O)sc45)c3)CC2)C1 [Example 168]: Fulfilled
- O=C(Cc1cccs1)N1CCOC2(CCN(CCOc3ccc(CNC[C@H](O)c4ccc(O)c5[nH]c(=O)sc45)cc3)CC2)C1 [Example 226]: Not fulfilled

*Q* Identify whether the reported activation at 1 µM of the following molecule is 90% or greater: O=C(COCc1ccccc1)N1CCOC2(CCN(CCOc3ccc(CNC[C@H](O)c4ccc(O)c5[nH]c(=O)sc45)cc3)CC2)C1 [Example 244]
*A* Not fulfilled

*Q* Does COc1ccc(OC)c(C(=O)N2CCOC3(CCN(Cc4cc(F)cc(CCNC[C@H](O)c5ccc(O)c6[nH]c(=O)sc56)c4)CC3)C2)c1 [Example 136] have a reported activation at 1 µM of at least 90%?
*A* Fulfilled

---

Molecular target: Adrenergic β2 (H292 cells) (Homo sapiens, UniProt P07550)
Construct: endogenous in cells; host or cells: H292 cells
Assay: Assay for Adrenergic β2 Mediated cAMP Production (concentration response, AlphaScreen cAMP detection)
Assay type: cell-based
Conditions: cAMP production, 60 minutes at room temperature, 300 μM rolipram, read-out: β2 pEC50 (converted)
Structures can show the parent of a compound that is named as a salt.
READOUT: log10(EC50) (log10 of the value in µM)
Remember, log10 of EC50, in µM.

See these solved cases before continuing.
• CC(C)c1nc(C(=O)N2CCOC3(CCN(CCCCCC(C)(C)CCCNC[C@H](O)c4ccc(O)c5[nH]c(=O)sc45)CC3)C2)cs1 [Example 285, formate] = -1.80
• CC(C)c1cc(C(=O)N2CCOC3(CCN(Cc4cccc(CC(C)(C)NC[C@H](O)c5ccc(O)c6[nH]c(=O)ccc56)c4)CC3)C2)cs1 [Example 275, ditrifluoroacetate] = -1.30
• Cc1nc2cc(C(=O)N3CCOC4(CCN(Cc5cc(CCNC[C@H](O)c6ccc(O)c7[nH]c(=O)sc67)cs5)CC4)C3)ccc2s1 [Example 49, ditrifluoroacetate] = -2.10
• Cc1ccc(C(=O)N2CCOC3(CCN(Cc4cc(CCNC[C@H](O)c5ccc(O)c6[nH]c(=O)sc56)cc(F)c4F)CC3)C2)s1 [Example 32, ditrifluoroacetate] = -2.50
• CC(C)c1csc(C(=O)N2CCOC3(CCN(Cc4cccc(CCNC[C@H](O)c5ccc(O)c6[nH]c(=O)ccc56)c4)CC3)C2)n1 [Example 76, ditrifluoroacetate] = -1.50
• CCCc1nc(C(=O)N2CCOC3(CCN(CCCCCCCCCNC[C@H](O)c4ccc(O)c5[nH]c(=O)sc45)CC3)C2)cs1 [Example 219] = -1.30
• O=C(c1csc(C2CCC2)n1)N1CCOC2(CCN(Cc3cc(F)cc(CCNC[C@H](O)c4ccc(O)c5[nH]c(=O)sc45)c3)CC2)C1 [Example 58, ditrifluoroacetate] = -2.00
• CC(C)c1nc(C(=O)N2CCOC3(CCN(CCOc4ccc(CCNC[C@H](O)c5ccc(O)c6[nH]c(=O)sc56)c(F)c4F)CC3)C2)cs1 [Example 269, ditrifluoroacetate] = -1.50
• Cc1csc(C(=O)N2CCOC3(CCN(CCCCCCCCCNC[C@H](O)c4ccc(O)c5[nH]c(=O)sc45)CC3)C2)c1 [Example 213] = -1.90
• O=C(c1csc(C(F)(F)F)n1)N1CCOC2(CCN(Cc3cccc(CCNC[C@H](O)c4ccc(O)c5[nH]c(=O)sc45)c3)CC2)C1 [Example 26, ditrifluoroacetate] = -1.90

*Q* Supply recorded log10(EC50) for Cc1cc(C(=O)N2CCOC3(CCN(CCCCCCCCCNC[C@H](O)c4ccc(O)c5[nH]c(=O)sc45)CC3)C2)c(C)s1 [Example 202] here.
*A* -1.70
